Each entry below carries its reported IC50.
# System Under Test: HPK1 kinase (Homo sapiens (Human), UniProt Q92918)
# Sequence (Q92918 whole entry): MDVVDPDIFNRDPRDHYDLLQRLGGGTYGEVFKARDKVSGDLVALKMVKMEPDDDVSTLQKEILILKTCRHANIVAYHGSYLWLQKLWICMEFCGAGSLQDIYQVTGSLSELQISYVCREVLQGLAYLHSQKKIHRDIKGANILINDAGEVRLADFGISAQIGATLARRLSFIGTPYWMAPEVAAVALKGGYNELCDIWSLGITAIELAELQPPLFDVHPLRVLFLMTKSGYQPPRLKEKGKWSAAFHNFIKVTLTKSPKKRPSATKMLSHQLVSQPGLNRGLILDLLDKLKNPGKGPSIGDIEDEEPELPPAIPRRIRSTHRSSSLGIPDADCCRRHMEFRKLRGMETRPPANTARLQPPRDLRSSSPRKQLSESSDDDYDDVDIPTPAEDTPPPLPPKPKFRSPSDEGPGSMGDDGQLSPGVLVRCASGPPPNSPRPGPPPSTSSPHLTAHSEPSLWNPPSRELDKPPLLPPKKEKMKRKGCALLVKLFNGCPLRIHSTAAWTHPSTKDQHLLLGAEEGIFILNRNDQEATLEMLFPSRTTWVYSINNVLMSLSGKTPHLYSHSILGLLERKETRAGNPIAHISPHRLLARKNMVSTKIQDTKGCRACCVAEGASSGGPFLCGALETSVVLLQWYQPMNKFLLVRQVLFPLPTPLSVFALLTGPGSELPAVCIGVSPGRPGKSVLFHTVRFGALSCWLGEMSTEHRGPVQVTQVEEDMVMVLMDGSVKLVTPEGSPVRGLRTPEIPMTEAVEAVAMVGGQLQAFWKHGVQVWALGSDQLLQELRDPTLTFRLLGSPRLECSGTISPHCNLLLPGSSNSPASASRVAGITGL
# Experiment Summary: Assay for in vitro inhibitory activity against HPK1 kinase
# Type: biochemical
# Test Settings: HPK1 1 ng/μL, ATP 1 mM, STK Substrate 1-biotin 500 nM
Form entry: value (nM) — number only.

// CN(C)Cc1nc(Nc2ccc(-c3cnn4ccc5occc5c34)c3c2C(=O)NC3)ccc1N1CCN(C)C1=O : IC50 value = 6.1

// CN(C)Cc1nc(Nc2cnc(-c3ccnc4c3c3c(n4C)CCC3)c3c2C(=O)NC3)ccc1N1CCOCC1 : IC50 value = 3.5

// [2H]C([2H])([2H])N(Cc1nc(Nc2cnc(-c3ccnc4c3c3c(n4C)CCC3)c3c2C(=O)NC3)ccc1C1CCOCC1)C([2H])([2H])[2H] : IC50 value = 1.4
